The following binders are shown together with reported pEC50 values.
- measured.target: T1, DcR3 (UniProt O95407 30-300, limits assumed)
- T1 construct: the construct is not described; also called decoy receptor DcR3; TNFRSF6B
- T1 sequence (looked up): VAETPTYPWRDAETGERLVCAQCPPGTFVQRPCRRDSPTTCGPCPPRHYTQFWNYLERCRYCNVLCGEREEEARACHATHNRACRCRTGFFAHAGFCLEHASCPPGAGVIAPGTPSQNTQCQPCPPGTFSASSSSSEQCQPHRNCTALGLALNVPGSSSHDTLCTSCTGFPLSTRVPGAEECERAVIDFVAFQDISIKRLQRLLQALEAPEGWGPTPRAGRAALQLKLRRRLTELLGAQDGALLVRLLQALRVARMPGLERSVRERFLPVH
- assay.procedure: ELISA, DcR3
Answer as the number alone; pEC50 is minus log10 of concentration in mol/L.

Request: Can you look up the measured pEC50 of TL1W114 (His-TEV-TL1A T192A) (ligand, also called TL1W114 (T192A)) HHHHHHENLYFQGLKGQEFAPSHQQVYAPLRADGDKPRAHLTVVRQTPTQHFKNQFPALHWEHELGLAFTKNRMNYTNKFLLIPESGDYFIYSQVTFRGMTSECSEIRQAGRPNKPDSITVVITKVTDSYPEPAQLLMGTKSVCEVGSNWFQPIYLGAMFSLQEGDKLMVNVSDISLVDYTKEDKTFFGAFLL for me?
Result: 8.00

Request: And the next one, TL1W136 (His-TEV-TL1A K240F) (ligand, also called TL1W136 (K240F)) HHHHHHENLYFQGLKGQEFAPSHQQVYAPLRADGDKPRAHLTVVRQTPTQHFKNQFPALHWEHELGLAFTKNRMNYTNKFLLIPESGDYFIYSQVTFRGMTSECSEIRQAGRPNKPDSITVVITKVTDSYPEPTQLLMGTKSVCEVGSNWFQPIYLGAMFSLQEGDKLMVNVSDISLVDYTFEDKTFFGAFLL ?
Result: 6.75

Request: And the next one, TL1W44 (His-TEV-TL1A P189K) (ligand, also called TL1W44 (P189K)) HHHHHHENLYFQGLKGQEFAPSHQQVYAPLRADGDKPRAHLTVVRQTPTQHFKNQFPALHWEHELGLAFTKNRMNYTNKFLLIPESGDYFIYSQVTFRGMTSECSEIRQAGRPNKPDSITVVITKVTDSYKEPTQLLMGTKSVCEVGSNWFQPIYLGAMFSLQEGDKLMVNVSDISLVDYTKEDKTFFGAFLL ?
Result: 7.23

Request: And the next one, TL1W138 (His-TEV-TL1A K240D) (ligand, also called TL1W138 (K240D)) HHHHHHENLYFQGLKGQEFAPSHQQVYAPLRADGDKPRAHLTVVRQTPTQHFKNQFPALHWEHELGLAFTKNRMNYTNKFLLIPESGDYFIYSQVTFRGMTSECSEIRQAGRPNKPDSITVVITKVTDSYPEPTQLLMGTKSVCEVGSNWFQPIYLGAMFSLQEGDKLMVNVSDISLVDYTDEDKTFFGAFLL ?
Result: 7.23

Request: And the next one, TL1W25 (His-TEV-hTL1A 72-251 N207A) (ligand, also called TL1W25 (N207A)) HHHHHHENLYFQGLKGQEFAPSHQQVYAPLRADGDKPRAHLTVVRQTPTQHFKNQFPALHWEHELGLAFTKNRMNYTNKFLLIPESGDYFIYSQVTFRGMTSECSEIRQAGRPNKPDSITVVITKVTDSYPEPTQLLMGTKSVCEVGSAWFQPIYLGAMFSLQEGDKLMVNVSDISLVDYTKEDKTFFGAFLL ?
Result: 8.43
